system.name: Trypsin (type 1× from porcine pancreas) (Sus scrofa, UniProt P00761)
Construct: Trypsin (5 ug/ml; type 1× from porcine pancreas); purchased Sigma, St. Louis Mo; host or cells: porcine pancreas
Sequence (P00761 9-231): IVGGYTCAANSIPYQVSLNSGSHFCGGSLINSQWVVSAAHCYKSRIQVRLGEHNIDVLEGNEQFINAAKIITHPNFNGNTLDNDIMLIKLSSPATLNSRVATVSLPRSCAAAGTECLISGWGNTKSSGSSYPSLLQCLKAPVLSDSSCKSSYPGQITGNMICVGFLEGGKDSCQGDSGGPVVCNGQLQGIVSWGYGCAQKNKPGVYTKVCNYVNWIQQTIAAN
experimental.protocol: Trypsin Assay
Assay type: biochemical
test.context: cells without % sign; read-out: IC50 Trypsin II
pIC50: −log10 of the molar value.
experimental.readout: pIC50

Illustrative cases are given below, each with its answer.
1. CC(C(=O)NCc1ccc(C(=N)N)cc1)n1c(-c2ccccc2)c(Cl)nc(NCCc2cccc(Cl)c2)c1=O (centres unmarked) : 5.85
2. N=C(N)c1ccc(CNC(=O)Cn2c(-c3cccc(N)c3)c(Cl)nc(NCCCCCC(N)=O)c2=O)cc1 : 7.40
3. CC(C)CC(C)Nc1nc(Cl)c(-c2cccc(N)c2)n(CC(=O)NCc2ccc(C(=N)N)cc2)c1=O (centres unmarked) : 6.77

I. CC(C(=O)NCc1ccc(C(=N)N)cc1)n1c(-c2ccccc2)c(Cl)nc(NCCc2ccccc2)c1=O (centres unmarked) [Example 1517-17]
II. N=C(N)c1ccc(CNC(=O)Cn2c(-c3cccc(N)c3)c(Cl)nc(NC3CC4CCC3C4)c2=O)cc1 (centres unmarked)
[ask] Lab log: flag the item ( I or II ) with the smaller pIC50 figure. Lab note: record the label of whichever item you select.
[reply] I
